# System: Plasmodium berghei
# run_description: Antiplasmodial activity against sporozoite stage of Plasmodium berghei expressing luciferase infected in human HepG2-A16-CD81EGFP cells preincubated with cells for 18 hrs followed by protozoal infection measured after 48 hrs by bioluminescence assay
# Assay type: functional, organism-based
measurement_type: pIC50
Worth noting: pIC50 values are minus log10 of concentrations stated in mol/L.

Consider the worked cases shown below.
{"columns": ["entry_smiles", "measured_value"],
 "data": [
  ["CS(=O)(=O)c1ccc(-c2cnc3ccc(-c4cccc(S(C)(=O)=O)c4)nn23)cc1", 8.39],
  ["CS(=O)(=O)c1ccc(-c2cnn3ccc(-c4cccc(S(=O)(=O)C5CC5)c4)cc23)cc1", 7.70],
  ["CS(=O)(=O)c1ccc(-c2cnn3ccc(-c4cccc(S(C)(=O)=O)c4)cc23)cc1", 8.18]
]}

Query :: What value of pIC50 has been recorded for this entry: CS(=O)(=O)c1ccc(-c2cnn3ccc(-c4cccc(S(=O)(=O)C5CC5)c4)nc23)cc1
Result :: 9.21

---

# run_description: Cmax in Plasmodium falciparum 3D7 infected in non-myelodepleted NOD-SCID IL2Rgammanull mouse engrafted with human erythrocytes at 1.5 mg/kg, po
# Assay type: ADME, organism-based
# Parameters: dose 1.5 mg/kg, route oral
# condition_details: in vivo
Measured Cmax by item
The response must be a number in ng/mL with no trailing unit.

{"columns": ["compound", "Cmax (ng/mL)"],
 "data": [
  ["C[S+]([O-])c1ccc(-c2cnn3ccc(-c4cccc(S(=O)(=O)C5CC5)c4)cc23)cc1 (configuration not stated)", 30]
]}

Note: attention shifts to another entry.
Query :: What value of Cmax has been recorded for this entry: CS(=O)(=O)c1ccc(-c2cnn3ccc(-c4cccc(S(=O)(=O)C5CC5)c4)cc23)cc1
Result :: 467

---

# run_description: AUC (0 to 8 hrs) in Plasmodium falciparum 3D7 infected in non-myelodepleted NOD-SCID IL2Rgammanull mouse engrafted with human erythrocytes at 0.1 mg/kg, po
# Assay type: ADME, organism-based
# Design: time < 8 hr, dose 0.1 mg/kg, route oral
# condition_details: in vivo
measurement_type: AUC(0-t) at 8 h (ng·h/mL)
The response must be a number in ng·h/mL with no trailing unit.

Query :: What value of AUC(0-t) at 8 h has been recorded for this entry: CS(=O)(=O)c1ccc(-c2cnn3ccc(-c4cccc(S(=O)(=O)C5CC5)c4)cc23)cc1
Result :: 139

---

# run_description: Tmax in Plasmodium falciparum 3D7 infected in non-myelodepleted NOD-SCID IL2Rgammanull mouse engrafted with human erythrocytes at 30 mg/kg, po
# Format: ADME, organism-based
# condition_details: in vivo
Measured Tmax by item

{"columns": ["compound", "measurement_type", "measured_value"],
 "data": [
  ["CS(=O)(=O)c1ccc(-c2cnn3ccc(-c4cccc(S(=O)(=O)C5CC5)c4)cc23)cc1", "Tmax", "8 h"]
]}

Note: attention shifts to another entry.
Query :: What value of Tmax has been recorded for this entry: C[S+]([O-])c1ccc(-c2cnn3ccc(-c4cccc(S(=O)(=O)C5CC5)c4)cc23)cc1 (configuration not stated)
Result :: 6 h

---

# Tested on: Blood
# run_description: Drug metabolism in mouse assessed as 5-(3-(Cyclopropylsulfonyl)phenyl)-3-(4-(methylsulfonyl)-phenyl)pyrazolo[1,5-a]pyridine level in blood at 50 mg/kg, po after 1 hr
# Format: ADME, organism-based
# condition_details: in vivo, read-out: Drug metabolism
measurement_type: concentration (µM)
The response must be a number in µM with no trailing unit.

Query :: What value of concentration has been recorded for this entry: C[S+]([O-])c1ccc(-c2cnn3ccc(-c4cccc(S(=O)(=O)C5CC5)c4)cc23)cc1 (stereo unspecified)
Result :: 7.9

---

Measured Tmax by item
# run_description: Tmax in Plasmodium falciparum 3D7 infected in non-myelodepleted NOD-SCID IL2Rgammanull mouse engrafted with human erythrocytes at 1.5 mg/kg, po
# Assay type: ADME, organism-based
# condition_details: in vivo
The response must be a number in h with no trailing unit.

{"columns": ["compound", "Tmax (h)"],
 "data": [
  ["CS(=O)(=O)c1ccc(-c2cnn3ccc(-c4cccc(S(=O)(=O)C5CC5)c4)cc23)cc1", 2]
]}

Note: attention shifts to another entry.
Query :: What value of Tmax has been recorded for this entry: C[S+]([O-])c1ccc(-c2cnn3ccc(-c4cccc(S(=O)(=O)C5CC5)c4)cc23)cc1 (configuration not stated)
Result :: 0.5

---

# run_description: Drug level in mouse blood at 50 mg/kg, po after 4 hrs
# Assay type: ADME, organism-based
# condition_details: read-out: Drug uptake
measurement_type: concentration at 4 h (nM)
The response must be a number in nM with no trailing unit.

{"columns": ["molecule", "reading_unit", "concentration at 4 h"],
 "data": [
  ["CS(=O)(=O)c1ccc(-c2cnn3c2NC(c2cccc(S(=O)(=O)C4CC4)c2)CC3)cc1 (stereo not given)", "nM", 177],
  ["CS(=O)(=O)c1ccc(-c2cnn3ccc(-c4cccc(S(C)(=O)=O)c4)cc23)cc1", "nM", 486],
  ["CS(=O)(=O)c1ccc(-c2cnn3ccc(-c4cccc(S(=O)(=O)C5CC5)c4)cc23)cc1", "nM", 1060],
  ["CS(=O)(=O)c1ccc(-c2cnn3ccc(-c4cccc(S(=O)(=O)C5CC5)c4)nc23)cc1", "nM", 145]
]}

Note: attention shifts to another entry.
Query :: What value of concentration at 4 h has been recorded for this entry: C[S+]([O-])c1ccc(-c2cnn3ccc(-c4cccc(S(=O)(=O)C5CC5)c4)cc23)cc1 (stereo not given)
Result :: 1780

---

# run_description: AUC (0 to 8 hrs) in Plasmodium falciparum 3D7 infected in non-myelodepleted NOD-SCID IL2Rgammanull mouse engrafted with human erythrocytes at 0.5 mg/kg, po
# Type: ADME, organism-based
# Set-up: dose 0.5 mg/kg, time < 8 hr, route oral
# condition_details: in vivo
measurement_type: AUC(0-t) at 8 h (ng·h/mL)
The response must be a number in ng·h/mL with no trailing unit.

Query :: What value of AUC(0-t) at 8 h has been recorded for this entry: C[S+]([O-])c1ccc(-c2cnn3ccc(-c4cccc(S(=O)(=O)C5CC5)c4)cc23)cc1 (stereo unspecified)
Result :: 12.1

---

# Tested on: Plasmodium falciparum
# run_description: Antiplasmodial activity against multidrug resistant Plasmodium falciparum K1 infected in human erythrocytes after 48 hrs by [3H]-hypoxanthine incorporation assay
# Assay type: functional, organism-based
Quick rule for you: IC50 under 50 nM gets yes (1), anything else gets no (0).

{"columns": ["compound", "category_label"],
 "data": [
  ["CS(=O)(=O)c1ccc(-c2cnn3c2NC(c2cccc(S(=O)(=O)C4CC4)c2)CC3)cc1 (stereo not drawn)", "yes (1)"],
  ["CS(=O)(=O)c1ccc(-c2cnc3ccc(-c4cccc(C(F)(F)F)c4)nn23)cc1", "yes (1)"],
  ["CS(=O)(=O)c1ccc(-c2cnc3ccc(-c4cccc(S(C)(=O)=O)c4)cn23)cc1", "no (0)"],
  ["CS(=O)(=O)c1ccc(-c2cnn3ccc(-c4cccc(S(=O)(=O)C5CC5)c4)cc23)cc1", "yes (1)"],
  ["CS(=O)(=O)c1ccc(-c2cnn3ccc(-c4cccc(C(F)(F)F)c4)nc23)cc1", "yes (1)"]
]}

Query :: Please let me know if CS(=O)(=O)c1ccc(-c2cnc3ncc(-c4cccc(S(C)(=O)=O)c4)cn23)cc1 shows IC50 below 50 nM.
Result :: no (0)

Query :: Please let me know if C[C@H]1[C@H](OC(=O)CCC(=O)O)O[C@@H]2O[C@@]3(C)CC[C@H]4[C@H](C)CC[C@@H]1[C@@]24OO3 [ARTESUNATE] shows IC50 below 50 nM.
Result :: yes (1)

Query :: Please let me know if CS(=O)(=O)c1ccc(-c2nnc3ccc(-c4cccc(S(C)(=O)=O)c4)cn23)cc1 shows IC50 below 50 nM.
Result :: no (0)

---

# run_description: Half life in rat at 15 mg/kg, po
# Assay type: ADME, organism-based
# condition_details: in vivo
measurement_type: half-life (h)
The response must be a number in h with no trailing unit.

{"columns": ["compound", "reading_unit", "half-life"],
 "data": [
  ["C[S+]([O-])c1ccc(-c2cnn3ccc(-c4cccc(S(=O)(=O)C5CC5)c4)cc23)cc1 (configuration not stated)", "h", 1]
]}

Note: attention shifts to another entry.
Query :: What value of half-life has been recorded for this entry: CS(=O)(=O)c1ccc(-c2cnn3ccc(-c4cccc(S(C)(=O)=O)c4)cc23)cc1
Result :: 2.6

---

# run_description: Plasma clearance in rat at 3 mg/kg, iv
# Type: ADME, organism-based
measurement_type: clearance (mL/min/kg)
The response must be a number in mL/min/kg with no trailing unit.

Query :: What value of clearance has been recorded for this entry: CS(=O)(=O)c1ccc(-c2cnn3ccc(-c4cccc(S(=O)(=O)C5CC5)c4)cc23)cc1
Result :: 3.5
